Experiment: pZr calculation (ligand sequestering ability)
Assay type: physicochemical
Details: pZr = −log[Zr(IV)free], pH 7.4, cL = 10 μM, cZr(IV) = 1 μM
measured_property: pZr

[in] Indicate its recorded pZr; the compound in question is N[C@H]1CCCCNC(=O)CCCN(O)C(=O)CCCNC(=O)CCCN(O)C(=O)CCCNC(=O)CCCN(O)C(=O)CCCNC(=O)CCCN(O)C(=O)CCCNC1=O
[out] 37.0

[in] Indicate its recorded pZr; the compound in question is O=C1CCCN(O)C(=O)CCCNC(=O)CCCN(O)C(=O)CCCNC(=O)CCCN(O)C(=O)CCCN1
[out] 32.4

[in] Indicate its recorded pZr; the compound in question is O=C1CCCCCN(O)C(=O)CCNC(=O)CCCCCN(O)C(=O)CCNC(=O)CCCCCN(O)C(=O)CCN1
[out] 31.5

[in] Indicate its recorded pZr; the compound in question is O=C1CCC(=O)N(O)CCCCCNC(=O)CCC(=O)N(O)CCCCCNC(=O)CCC(=O)N(O)CCCCCN1 [DFOE, desferrioxamine E, reference compound]
[out] 31.0

[in] Indicate its recorded pZr; the compound in question is CN(O)C(=O)CCC(=O)NCCOCC(C)(COCCNC(=O)CCC(=O)N(C)O)COCCNC(=O)CCC(=O)N(C)O
[out] 32.6
